Molecular target: UniProt:P14902
Sequence (P14902 whole entry): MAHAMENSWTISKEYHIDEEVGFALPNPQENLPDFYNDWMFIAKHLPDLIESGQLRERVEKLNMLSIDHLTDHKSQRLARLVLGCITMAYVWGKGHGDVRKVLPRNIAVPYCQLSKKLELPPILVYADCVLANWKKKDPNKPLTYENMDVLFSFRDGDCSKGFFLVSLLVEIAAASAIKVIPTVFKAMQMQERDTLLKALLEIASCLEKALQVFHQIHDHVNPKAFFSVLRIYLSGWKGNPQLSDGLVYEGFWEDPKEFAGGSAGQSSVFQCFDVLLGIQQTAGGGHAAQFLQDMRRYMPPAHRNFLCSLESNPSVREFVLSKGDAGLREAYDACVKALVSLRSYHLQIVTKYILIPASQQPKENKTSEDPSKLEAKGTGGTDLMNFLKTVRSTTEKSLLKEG
Assay: hIDO biochemical coupled assay
Details: 45 μM L-tryptophan, 17 minutes, room temperature; read-out: hIDO biochemical assay pIC50 (converted)
quantity: IC50

{"molecule": "Clc1cc(N2C[C@H]3CC[C@@H](C2)NC3)c2cn[nH]c2c1", "IC50": "3.24 to 31.6 µM"}
{"molecule": "CS(=O)(=O)N1CCC(c2cc(C3CCOCC3)cc3[nH]ncc23)CC1", "IC50": "> 100 µM"}
{"molecule": "O=C1NCC2(CCN(c3cc(Cl)cc4[nH]ncc34)CC2)N1", "IC50": "3.24 to 31.6 µM"}
{"molecule": "CS(=O)(=O)N1CCC(c2cc(C(F)F)cc3[nH]ncc23)CC1", "IC50": "3.24 to 31.6 µM"}
{"molecule": "O=C1NCNC12CCN(c1cc(Cl)cc3[nH]ncc13)CC2", "IC50": "> 100 µM"}

Looking up Clc1cc(N2CCC(c3cscn3)CC2)c2cn[nH]c2c1 , I found its IC50 recorded as 3.24 to 31.6 µM

Looking up CN(C1CCCN(c2cc(Cl)cc3[nH]ncc23)C1)S(C)(=O)=O (stereo not drawn) , I found its IC50 recorded as > 100 µM

Looking up O=C1N[C@H]2CC[C@@H]1CN(c1cc(Cl)cc3[nH]ncc13)C2 , I found its IC50 recorded as 32.4 to 100 µM

Looking up CS(=O)(=O)N1CCC(c2cc(Cl)cc3[nH]ncc23)CC1 , I found its IC50 recorded as < 3.16 µM
